target: SNAP-hSPR (sepiapterin reductase, SPR) (Homo sapiens); experiment: biochemical; format: binding; settings: terbium labelled SNAP-hSPR / SSZ labelled SNAP-EGFP; read-out: hTR-FRET IC50
quantity.measured: pIC50
Please report pIC50 as the negative decimal logarithm of the molar concentration, giving only the number.

Entry Cc1c(C(=O)N2CCC(C3(C#N)CC3)CC2)cnn1-c1nn2cccc2c(=O)[nH]1 : reported pIC50 = ?
9.00

Ok, now Cc1c(C(=O)N2CCC(C(F)(F)F)CC2)cnn1-c1nn2cc(F)cc2c(=O)[nH]1
8.52

Ok, now Cc1c(C(=O)N2CCC(n3ccnc3Cl)CC2)cnn1-c1nn2cccc2c(=O)[nH]1
9.00

Ok, now Cc1c(C(=O)N2CCN(CC(F)(F)F)CC2)cnn1-c1nc2c(c(=O)[nH]1)CCC2
8.30

Ok, now Cc1c(C(=O)N2CCC3(CC2)CC3(F)F)cnn1-c1nn2cccc2c(=O)[nH]1
8.70

Ok, now Cc1c(C(=O)N2CCC(c3c[nH]c4ccccc34)CC2)ccnc1-c1nc2ccsc2c(=O)[nH]1
6.52

Ok, now Cc1c(C(=O)N2CCC3(CC2)CC3C(=O)N2CCOCC2)cnn1-c1nn2cccc2c(=O)[nH]1 (stereo not drawn)
8.70

Ok, now Cc1cc(=O)[nH]c(-n2ncc(C(=O)NC3CCCC3)c2C(C)C)n1
7.70

Ok, now Cc1c(C(=O)N2CCC(c3nccs3)CC2)cnn1-c1nn2cccc2c(=O)[nH]1
9.00

---

molecular target: SNAP-hSPR (sepiapterin reductase, SPR) (Homo sapiens, UniProt P35270)
Sequence (P35270 whole entry): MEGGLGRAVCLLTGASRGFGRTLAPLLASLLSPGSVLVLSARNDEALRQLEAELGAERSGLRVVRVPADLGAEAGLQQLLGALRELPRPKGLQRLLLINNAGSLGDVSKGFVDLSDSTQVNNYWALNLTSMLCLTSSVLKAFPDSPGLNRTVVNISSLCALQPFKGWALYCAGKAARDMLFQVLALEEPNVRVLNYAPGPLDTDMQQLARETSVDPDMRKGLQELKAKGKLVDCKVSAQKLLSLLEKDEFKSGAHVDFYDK
quantity.measured: pIC50
Please report pIC50 as the negative decimal logarithm of the molar concentration, giving only the number.

Entry COC(=O)C12CC(C(=O)N3CCN(C(=O)c4cnn(-c5nc6c(c(=O)[nH]5)CCC6)c4C)CC3)(C1)C2 : reported pIC50 = ?
8.00

Ok, now Cc1c(CN2CCCCC2=O)cnn1-c1nc2c(c(=O)[nH]1)CCC2
8.22

Ok, now Cc1cc(=O)[nH]c(-n2ncc(C(=O)N3CCc4ccc(C#N)cc4C3)c2C)n1
8.00

Ok, now Cc1c(C(=O)N2CCC(c3c[nH]c4cc(F)ccc34)CC2)cnn1-c1nc2c(c(=O)[nH]1)CCC2
8.22

Ok, now Cc1c(C(=O)N2CCN(c3ncc(-c4ccc(Cl)nc4)o3)CC2)nnn1-c1nn2cccc2c(=O)[nH]1
8.00

---

molecular target: SNAP-hSPR (sepiapterin reductase, SPR) (Homo sapiens, UniProt P35270)
quantity.measured: IC50 (nM)
Write it as a number; the unit nM goes unstated.

Entry Cc1c(C(=O)N2CCN(C(C)C(F)(F)F)CC2)cnn1-c1nn2cccc2c(=O)[nH]1 (stereo not shown) : reported IC50 = ?
1

Ok, now Cc1c(C(=O)N2CCC(n3cccc3S(=O)(=O)C(F)(F)F)CC2)cnn1-c1nn2cccc2c(=O)[nH]1
8

Ok, now Cc1c(C(=O)N2CCC(C(C)(C)C)CC2)cnn1-c1nc2c(c(=O)[nH]1)CCC2
3

Ok, now Cc1cc(=O)[nH]c(-c2c(C)nn(CCC(=O)N3CCCC3)c2C)n1
25000

Ok, now Cc1cc(=O)[nH]c(-n2nc(C)c(CCC(=O)Nc3ccc(Cl)cc3)c2C)n1
300

Ok, now Cc1c(C(=O)N2CCC(Oc3ccccc3)C2)cnn1-c1nc2c(c(=O)[nH]1)CCC2 (stereo not shown)
5

Ok, now Cc1c(C(=O)N2CC3CC(C2)N3CC(F)(F)F)cnn1-c1nc2[nH]ncc2c(=O)[nH]1
800

Ok, now Cc1c(C(=O)N2CC3(CCN(CC(F)(F)F)CC3)C2)cnn1-c1nn2cccc2c(=O)[nH]1
2

Ok, now Cc1c(C(=O)N2c3ccccc3CC2C)cnn1-c1nc2ccsc2c(=O)[nH]1 (stereo not shown)
30

Ok, now Cc1c(C(=O)N2CCc3ccccc3C2)cnn1-c1nc2ccccc2c(=O)[nH]1
300

Ok, now Cc1c(C(=O)N2CCN(S(=O)(=O)c3ccc4c(c3)OCO4)CC2)cnn1-c1nn2cccc2c(=O)[nH]1
2

Ok, now Cc1c(C(=O)N2CCN(S(=O)(=O)c3cnn(C)c3)CC2)cnn1-c1nn2cccc2c(=O)[nH]1
3

Ok, now Cc1c(C(=O)N2CC3CC(C2)N3CC(F)(F)F)cnn1-c1nc2[nH]ccc2c(=O)[nH]1
100

Ok, now Cc1c(C(=O)N2CCC(O)(C(F)(F)F)CC2)cnn1-c1nn2cccc2c(=O)[nH]1
1

Ok, now CC(=O)Nc1nc(C)c(S(=O)(=O)N2CCN(C(=O)c3cnn(-c4nn5cccc5c(=O)[nH]4)c3C)CC2)s1
1

Ok, now Cc1c(C(=O)N2CCC(NC(=O)OC(C)(C)C)(C(F)(F)F)C2)cnn1-c1nn2cccc2c(=O)[nH]1 (stereo not shown)
2

Ok, now CCCC(=O)C1CCN(C(=O)c2cnn(-c3nn4cccc4c(=O)[nH]3)c2C)CC1
1

Ok, now C=C(C1CCN(C(=O)c2cnn(-c3nn4cccc4c(=O)[nH]3)c2C)CC1)C(F)(F)F
1

Ok, now O=C(c1cn(-c2nn3cccc3c(=O)[nH]2)nn1)N1CCN(C2CC2)CC1
1
